Assign concentration at 1 day to each entry below.
Test: Biodistribution after day 1 in mouse heart
Type: ADME, organism-based
Give the number; ng/g is assumed, so skip it.

Reported concentration at 1 day, compound `CCc1c(CC)c2cc3nc(cc4[nH]c(c(C)c4CC)c4[nH]c(cc5nc(cc1[nH]2)C(CCC(=O)NCCOCCOCCO)=C5C)c(CC)c4C)C(C)=C3CCC(=O)NCCOCCOCCO` : ____ 8000

What about `CCC1=C(CC)c2cc3[nH]c(cc4[nH]c(c(C)c4CC)c4[nH]c(cc5nc(cc1n2)C(CCC(=O)NCCOCCOCCN)=C5C)c(CC)c4C)c(C)c3CCC(=O)NCCOCCOCCN` ? 2000

What about CCc1c(CC)c2cc3nc(cc4[nH]c(c(C)c4CC)c4[nH]c(cc5nc(cc1[nH]2)C(CCC(=O)N(CCO)CCO)=C5C)c(CC)c4C)C(C)=C3CCC(=O)N(CCO)CCO [SAPPHYRIN] ? 950

And for CCc1c(CC)c2cc3nc(cc4[nH]c(c(C)c4CC)c4[nH]c(cc5nc(cc1[nH]2)C(CCC(=O)NC1C(O)OC(CO)C(O)C1O)=C5C)c(CC)c4C)C(C)=C3CCC(=O)NC1C(O)OC(CO)C(O)C1O (stereo unspecified) ? 5400

Note, next up: C=CC1=C(C)c2cc3nc(cc4[nH]c(cc5[nH]c(cc1n2)c(C)c5CCC(=O)NC1C(O)OC(CO)C(O)C1O)c(CCC(=O)NC1C(O)OC(CO)C(O)C1O)c4C)C(C=C)=C3C (stereo unspecified) [PORPHYRIN] 2700

Check `CCc1c(CC)c2cc3nc(cc4[nH]c(c(C)c4CC)c4[nH]c(cc5nc(cc1[nH]2)C(CCC(=O)NCCN(CCN)CCN)=C5C)c(CC)c4C)C(C)=C3CCC(=O)NCCN(CCN)CCN` too. 3100

---

Exercise: for every item that follows, state its recorded concentration at 9 day.
Experiment: Biodistribution after day 9 in mouse brain
Type: ADME, organism-based
Write the number in ng/g without appending the unit.

Report concentration at 9 day for CCc1c(CC)c2cc3nc(cc4[nH]c(c(C)c4CC)c4[nH]c(cc5nc(cc1[nH]2)C(CCC(=O)NC1C(O)OC(CO)C(O)C1O)=C5C)c(CC)c4C)C(C)=C3CCC(=O)NC1C(O)OC(CO)C(O)C1O (configuration not stated) please. 520

Would you kindly repeat that for C=CC1=C(C)c2cc3nc(cc4[nH]c(cc5[nH]c(cc1n2)c(C)c5CCC(=O)NC1C(O)OC(CO)C(O)C1O)c(CCC(=O)NC1C(O)OC(CO)C(O)C1O)c4C)C(C=C)=C3C (configuration not stated) ? 370

---

For each entry below, report its concentration at 1 day value.
Assay: Biodistribution after day 1 in mouse blood
Type: ADME, organism-based
Give the value, in units of ng/g, as a plain number.

Given the molecule `CCc1c(CC)c2cc3nc(cc4[nH]c(c(C)c4CC)c4[nH]c(cc5nc(cc1[nH]2)C(CCC(=O)N(CCO)CCO)=C5C)c(CC)c4C)C(C)=C3CCC(=O)N(CCO)CCO` , what is its reported concentration at 1 day? 500

Same question, `CCc1c(CC)c2cc3nc(cc4[nH]c(c(C)c4CC)c4[nH]c(cc5nc(cc1[nH]2)C(CCC(=O)NCCOCCOCCO)=C5C)c(CC)c4C)C(C)=C3CCC(=O)NCCOCCOCCO` this time 7000

Also `CCc1c(CC)c2cc3nc(cc4[nH]c(c(C)c4CC)c4[nH]c(cc5nc(cc1[nH]2)C(CCC(=O)NCCN(CCN)CCN)=C5C)c(CC)c4C)C(C)=C3CCC(=O)NCCN(CCN)CCN` ? 950

---

Could you please report measured log10 concentration at 1 day for the items listed next?
Test: Biodistribution after day 1 in mouse liver
Assay type: ADME, organism-based
Annotation: log10 of concentration at 1 day, ng/g basis.

Recorded log10 concentration at 1 day for C=CC1=C(C)c2cc3nc(cc4[nH]c(cc5[nH]c(cc1n2)c(C)c5CCC(=O)NC1C(O)OC(CO)C(O)C1O)c(CCC(=O)NC1C(O)OC(CO)C(O)C1O)c4C)C(C=C)=C3C (stereo unspecified) , please? 3.04

Now try CCc1c(CC)c2cc3nc(cc4[nH]c(c(C)c4CC)c4[nH]c(cc5nc(cc1[nH]2)C(CCC(=O)NC1C(O)OC(CO)C(O)C1O)=C5C)c(CC)c4C)C(C)=C3CCC(=O)NC1C(O)OC(CO)C(O)C1O (stereo unspecified) . 2.46

Let us now turn to `CCc1c(CC)c2cc3nc(cc4[nH]c(c(C)c4CC)c4[nH]c(cc5nc(cc1[nH]2)C(CCC(=O)N(CCO)CCO)=C5C)c(CC)c4C)C(C)=C3CCC(=O)N(CCO)CCO` 3.15

Do the same for `CCc1c(CC)c2cc3nc(cc4[nH]c(c(C)c4CC)c4[nH]c(cc5nc(cc1[nH]2)C(CCC(=O)NCCN(CCN)CCN)=C5C)c(CC)c4C)C(C)=C3CCC(=O)NCCN(CCN)CCN` please 3.01

And then `CCC1=C(CC)c2cc3[nH]c(cc4[nH]c(c(C)c4CC)c4[nH]c(cc5nc(cc1n2)C(CCC(=O)NCCOCCOCCN)=C5C)c(CC)c4C)c(C)c3CCC(=O)NCCOCCOCCN` , what is it? 2.32

Entry to check: `CCc1c(CC)c2cc3nc(cc4[nH]c(c(C)c4CC)c4[nH]c(cc5nc(cc1[nH]2)C(CCC(=O)NCCOCCOCCO)=C5C)c(CC)c4C)C(C)=C3CCC(=O)NCCOCCOCCO` 4.15

---

Experiment: Biodistribution after day 1 in mouse blood
Assay type: ADME, organism-based
Would you kindly list concentration at 1 day for each of these compounds?
Enter your answer as a number in ng/g; do not include the unit.

Give its concentration at 1 day value. Item: CCc1c(CC)c2cc3nc(cc4[nH]c(c(C)c4CC)c4[nH]c(cc5nc(cc1[nH]2)C(CCC(=O)NC1C(O)OC(CO)C(O)C1O)=C5C)c(CC)c4C)C(C)=C3CCC(=O)NC1C(O)OC(CO)C(O)C1O (stereo not drawn) 1440

Subsequent entry: C=CC1=C(C)c2cc3nc(cc4[nH]c(cc5[nH]c(cc1n2)c(C)c5CCC(=O)NC1C(O)OC(CO)C(O)C1O)c(CCC(=O)NC1C(O)OC(CO)C(O)C1O)c4C)C(C=C)=C3C (stereo not drawn) 1090

Now the same for `CCC1=C(CC)c2cc3[nH]c(cc4[nH]c(c(C)c4CC)c4[nH]c(cc5nc(cc1n2)C(CCC(=O)NCCOCCOCCN)=C5C)c(CC)c4C)c(C)c3CCC(=O)NCCOCCOCCN` 1690

---

Field: concentration at 3 day. Provide a value for each of the compounds that follow.
Assay: Biodistribution after day 3 in mouse spleen
Format: ADME, organism-based
# number only, unit ng/g dropped from output

Any idea what its concentration at 3 day is? The compound is `CCc1c(CC)c2cc3nc(cc4[nH]c(c(C)c4CC)c4[nH]c(cc5nc(cc1[nH]2)C(CCC(=O)N(CCO)CCO)=C5C)c(CC)c4C)C(C)=C3CCC(=O)N(CCO)CCO` 1390

What do you have for CCc1c(CC)c2cc3nc(cc4[nH]c(c(C)c4CC)c4[nH]c(cc5nc(cc1[nH]2)C(CCC(=O)NC1C(O)OC(CO)C(O)C1O)=C5C)c(CC)c4C)C(C)=C3CCC(=O)NC1C(O)OC(CO)C(O)C1O (stereo unspecified) ? 7800

Subsequent entry: `CCc1c(CC)c2cc3nc(cc4[nH]c(c(C)c4CC)c4[nH]c(cc5nc(cc1[nH]2)C(CCC(=O)NCCN(CCN)CCN)=C5C)c(CC)c4C)C(C)=C3CCC(=O)NCCN(CCN)CCN` 8000

Try the compound C=CC1=C(C)c2cc3nc(cc4[nH]c(cc5[nH]c(cc1n2)c(C)c5CCC(=O)NC1C(O)OC(CO)C(O)C1O)c(CCC(=O)NC1C(O)OC(CO)C(O)C1O)c4C)C(C=C)=C3C (stereo unspecified) 16000

Next entry: `CCc1c(CC)c2cc3nc(cc4[nH]c(c(C)c4CC)c4[nH]c(cc5nc(cc1[nH]2)C(CCC(=O)NCCOCCOCCO)=C5C)c(CC)c4C)C(C)=C3CCC(=O)NCCOCCOCCO` 11000

Then `CCC1=C(CC)c2cc3[nH]c(cc4[nH]c(c(C)c4CC)c4[nH]c(cc5nc(cc1n2)C(CCC(=O)NCCOCCOCCN)=C5C)c(CC)c4C)c(C)c3CCC(=O)NCCOCCOCCN` ? 11000

---

Assay: Biodistribution after day 9 in mouse tumor
Assay type: ADME, organism-based
Experimental endpoint: concentration at 9 day (ng/g)
Lab book: enter the figure in ng/g, no units written.

Sample C=CC1=C(C)c2cc3nc(cc4[nH]c(cc5[nH]c(cc1n2)c(C)c5CCC(=O)NC1C(O)OC(CO)C(O)C1O)c(CCC(=O)NC1C(O)OC(CO)C(O)C1O)c4C)C(C=C)=C3C (configuration not stated) — what was its concentration at 9 day? 37000

What about CCc1c(CC)c2cc3nc(cc4[nH]c(c(C)c4CC)c4[nH]c(cc5nc(cc1[nH]2)C(CCC(=O)NC1C(O)OC(CO)C(O)C1O)=C5C)c(CC)c4C)C(C)=C3CCC(=O)NC1C(O)OC(CO)C(O)C1O (configuration not stated) ? 23000
